# Species on record: Rattus norvegicus
# Method: Tested for its effect on the wound healing in rats at 7th postoperative day by measuring tensile strength of skin strips from the wound segments; value relative to control(100)
# Assay type: functional
Assay Readout: Relative value

[[record]]
molecule = "COCCOCOC(=O)[C@]12CC[C@@H](C)[C@H](C)C1C1=CCC3[C@@]4(C)C[C@@H](O)[C@H](O)[C@@](C)(CO)C4CC[C@@]3(C)[C@]1(C)CC2 (some centres not stated)"
assay_readout = "Relative value"
measured = 139

[[record]]
molecule = "CCCCCCCCOCOC(=O)[C@]12CC[C@@H](C)[C@H](C)C1C1=CCC3[C@@]4(C)C[C@@H](O)[C@H](O)[C@@](C)(CO)C4CC[C@@]3(C)[C@]1(C)CC2 (some centres not stated)"
assay_readout = "Relative value"
measured = 163

[[record]]
molecule = "CCOCOC(=O)[C@]12CC[C@@H](C)[C@H](C)C1C1=CCC3[C@@]4(C)C[C@@H](OC(C)=O)[C@H](OC(C)=O)[C@@](C)(COC(C)=O)C4CC[C@@]3(C)[C@]1(C)CC2 (some centres not stated)"
assay_readout = "Relative value"
measured = 215

[[record]]
molecule = "C[C@@H]1CC[C@]2(C(=O)O)CC[C@]3(C)C(=CCC4[C@@]5(C)C[C@@H](O)[C@H](O)[C@@](C)(CO)C5CC[C@]43C)C2[C@H]1C (some centres not stated)"
assay_readout = "Relative value"
measured = 146

[[record]]
molecule = "COCCOCOC(=O)[C@]12CC[C@@H](C)[C@H](C)C1C1=CCC3[C@@]4(C)C[C@@H](OC(C)=O)[C@H](OC(C)=O)[C@@](C)(COC(C)=O)C4CC[C@@]3(C)[C@]1(C)CC2 (some centres not stated)"
assay_readout = "Relative value"
measured = 141

[[record]]
molecule = "COCOC(=O)[C@]12CC[C@@H](C)[C@H](C)C1C1=CCC3[C@@]4(C)C[C@@H](O)[C@H](O)[C@@](C)(CO)C4CC[C@@]3(C)[C@]1(C)CC2 (some centres not stated)"
assay_readout = "Relative value"
measured = 141

[[record]]
molecule = "C[C@@H]1CC[C@]2(C(=O)OC3CCCCO3)CC[C@]3(C)C(=CCC4[C@@]5(C)C[C@@H](O)[C@H](O)[C@@](C)(CO)C5CC[C@]43C)C2[C@H]1C (some centres not stated)"
assay_readout = "Relative value"
measured = 168

[[record]]
molecule = "C[C@@H]1CC[C@]2(C(=O)OCOCc3ccccc3)CC[C@]3(C)C(=CCC4[C@@]5(C)C[C@@H](O)[C@H](O)[C@@](C)(CO)C5CC[C@]43C)C2[C@H]1C (some centres not stated)"
assay_readout = "Relative value"
measured = 114

[[record]]
molecule = "CC(=O)OC[C@@]1(C)C2CC[C@]3(C)C(CC=C4C5[C@@H](C)[C@H](C)CC[C@]5(C(=O)OC5CCCO5)CC[C@]43C)[C@@]2(C)C[C@@H](OC(C)=O)[C@@H]1OC(C)=O (some centres not stated)"
assay_readout = "Relative value"
measured = 145

[[record]]
molecule = "CCCCCCCCOCOC(=O)[C@]12CC[C@@H](C)[C@H](C)C1C1=CCC3[C@@]4(C)C[C@@H](OC(C)=O)[C@H](OC(C)=O)[C@@](C)(COC(C)=O)C4CC[C@@]3(C)[C@]1(C)CC2 (some centres not stated)"
assay_readout = "Relative value"
measured = 137

[[record]]
molecule = "CCCCOC(C)OC(=O)[C@]12CC[C@@H](C)[C@H](C)C1C1=CCC3[C@@]4(C)C[C@@H](O)[C@H](O)[C@@](C)(CO)C4CC[C@@]3(C)[C@]1(C)CC2 (some centres not stated)"
assay_readout = "Relative value"
measured = 126

[[record]]
molecule = "CCOC(C)OC(=O)[C@]12CC[C@@H](C)[C@H](C)C1C1=CCC3[C@@]4(C)C[C@@H](O)[C@H](O)[C@@](C)(CO)C4CC[C@@]3(C)[C@]1(C)CC2 (some centres not stated)"
assay_readout = "Relative value"
measured = 135

